The reported measurements were obtained from patent US20240294495A1.

Field: DC50. Provide a value for each of the molecules that follow.
biological target: GSPT1 (Homo sapiens, UniProt P15170+Q96SW2); construct: CAL-51 cells were purchased from DSMZ (cat. Number ACC302); endogenous in cells; host or cells: CAL-51 (DSMZ ACC302); experiment: Immunofluorescence assay for GSPT1 degradation in CAL-51 cells; format: cell-based; details: 6 h treatment, read-out: IF Class (GSPT1 degradation, DC50)
Sequence (P15170 whole entry): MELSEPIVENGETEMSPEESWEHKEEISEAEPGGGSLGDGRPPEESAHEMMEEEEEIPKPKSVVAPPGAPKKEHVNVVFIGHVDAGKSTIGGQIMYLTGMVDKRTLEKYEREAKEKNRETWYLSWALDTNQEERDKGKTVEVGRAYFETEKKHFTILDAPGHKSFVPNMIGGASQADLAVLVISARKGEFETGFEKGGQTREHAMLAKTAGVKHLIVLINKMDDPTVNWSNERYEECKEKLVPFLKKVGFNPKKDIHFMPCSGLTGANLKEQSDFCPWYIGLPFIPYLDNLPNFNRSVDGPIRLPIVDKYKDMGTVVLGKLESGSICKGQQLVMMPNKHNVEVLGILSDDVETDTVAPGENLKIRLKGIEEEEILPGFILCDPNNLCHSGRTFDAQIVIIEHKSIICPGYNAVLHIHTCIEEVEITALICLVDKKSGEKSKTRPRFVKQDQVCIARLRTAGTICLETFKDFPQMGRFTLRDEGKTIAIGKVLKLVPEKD
Sequence (Q96SW2 whole entry): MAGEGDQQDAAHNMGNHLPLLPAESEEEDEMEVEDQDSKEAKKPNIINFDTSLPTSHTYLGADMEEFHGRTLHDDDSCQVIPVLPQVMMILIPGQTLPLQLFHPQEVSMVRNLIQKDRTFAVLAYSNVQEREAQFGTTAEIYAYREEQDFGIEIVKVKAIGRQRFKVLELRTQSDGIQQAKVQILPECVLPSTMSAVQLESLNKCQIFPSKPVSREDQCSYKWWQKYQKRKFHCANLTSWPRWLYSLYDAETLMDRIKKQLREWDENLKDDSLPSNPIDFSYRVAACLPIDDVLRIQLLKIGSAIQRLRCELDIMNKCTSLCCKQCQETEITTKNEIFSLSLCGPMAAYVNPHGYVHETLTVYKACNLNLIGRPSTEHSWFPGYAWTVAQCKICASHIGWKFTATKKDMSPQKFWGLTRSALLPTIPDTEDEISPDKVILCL
Sequence (Q16531 2-1140 partner limits assumed): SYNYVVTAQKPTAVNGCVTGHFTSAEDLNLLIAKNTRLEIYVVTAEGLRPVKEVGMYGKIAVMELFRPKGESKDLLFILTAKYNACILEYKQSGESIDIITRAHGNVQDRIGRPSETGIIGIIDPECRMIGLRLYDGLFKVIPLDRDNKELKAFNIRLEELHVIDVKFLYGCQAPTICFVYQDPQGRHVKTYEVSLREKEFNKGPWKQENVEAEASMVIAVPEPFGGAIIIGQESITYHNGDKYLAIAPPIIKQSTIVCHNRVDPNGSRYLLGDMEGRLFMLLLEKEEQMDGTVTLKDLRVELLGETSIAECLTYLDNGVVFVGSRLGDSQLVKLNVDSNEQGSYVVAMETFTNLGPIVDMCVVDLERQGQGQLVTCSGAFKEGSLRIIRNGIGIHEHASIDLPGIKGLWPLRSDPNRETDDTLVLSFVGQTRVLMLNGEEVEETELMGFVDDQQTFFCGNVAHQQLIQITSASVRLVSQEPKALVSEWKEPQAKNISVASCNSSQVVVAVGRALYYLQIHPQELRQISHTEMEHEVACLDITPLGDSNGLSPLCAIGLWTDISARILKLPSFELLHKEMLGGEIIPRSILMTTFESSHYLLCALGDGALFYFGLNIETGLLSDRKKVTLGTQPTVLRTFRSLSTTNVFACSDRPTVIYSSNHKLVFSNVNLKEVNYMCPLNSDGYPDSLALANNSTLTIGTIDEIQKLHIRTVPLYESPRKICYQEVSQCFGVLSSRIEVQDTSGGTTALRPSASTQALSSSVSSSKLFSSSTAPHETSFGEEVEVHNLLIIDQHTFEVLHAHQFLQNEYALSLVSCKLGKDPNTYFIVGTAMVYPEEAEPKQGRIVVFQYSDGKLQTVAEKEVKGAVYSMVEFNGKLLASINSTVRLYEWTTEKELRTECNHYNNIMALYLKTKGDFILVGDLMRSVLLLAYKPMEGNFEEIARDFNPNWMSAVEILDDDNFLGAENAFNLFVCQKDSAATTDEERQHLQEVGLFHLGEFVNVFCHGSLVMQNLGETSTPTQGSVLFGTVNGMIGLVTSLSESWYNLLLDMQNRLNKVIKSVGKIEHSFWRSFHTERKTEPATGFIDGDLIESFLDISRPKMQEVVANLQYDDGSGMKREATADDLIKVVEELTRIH

Item: O=C1CCC(c2c(F)cc(N3CC(NC(=O)Cc4ccc(C5CCC5)cc4)C3)cc2F)C(=O)N1 (stereo not shown) | DC50: > 300 nM

Item: Cc1cc(CC(=O)NC2CN(c3cc(F)c(C4CCC(=O)NC4=O)c(F)c3)C2)ccc1F (stereo not shown) | DC50: 30 to 300 nM

Item: O=C1CCC(c2ccc(N3CC(NC(=O)Cc4ccc(Cl)cc4)C3)cc2Cl)C(=O)N1 (stereo not shown) | DC50: > 300 nM

Item: C[C@@H]1CCCN1c1ccc(CC(=O)NC2CN(c3cc(F)c(C4CCC(=O)NC4=O)c(F)c3)C2)cn1 (stereo partly shown) | DC50: > 300 nM
